Measured pEC50 values are reported for all entries that follow.
- Tested on: Leishmania donovani axenic amastigote parasites
- Protocol Description: Leishmania donovani axenic amastigote proliferation assay
- Type: cell-based
- Experimental Context: axenic amastigotes in vitro, read-out: L. donovani amastigotes EC50
pEC50: −log10 of the molar value.

The following compounds have reported results that may help.
| Molecular String | Result |
| --- | --- |
| CCN(CC)C(=O)Nc1ccc(F)c(-c2nc3ncc(Cl)cc3[nH]2)c1 | < 4.60 |
| Cc1cnc2nc(-c3cc(NC(=O)c4ccc(S(C)(=O)=O)nc4)ccc3Cl)[nH]c2c1 | < 4.60 |
| O=C(Nc1ccc(Cl)c(-c2nc3ncc(-c4ccccc4)cc3o2)c1)c1ccco1 | 5.82 |

--- query ---
Can you look up the measured pEC50 of Cc1cnc2nc(-c3cc(NC(=O)C4(C)CNC4)ccc3Cl)[nH]c2c1 for me?
< 4.60
